Ref: PubChem BioAssay (NCI)

Tested on: T-47D breast
Assay: NCI tumour cell line growth inhibition, 48 h
testReadout: TGI

>>> valueobserved("COc1ccc(-c2n/c(=C\\c3c(O)[nH]c4ccccc34)cc3c2=Nc2ccccc2-3)cc1")
"9.43 µM"
>>> valueobserved("Cn1cc(C2=C(c3cn(CCCCC(=N)N)c4ccccc34)C(=O)NC2=O)c2ccccc21")
"> 25 µM"
>>> valueobserved("O=C(/C=C/c1ccco1)c1ccc(Nc2nc(Nc3ccc(F)cc3)nc(Nc3ccc(F)cc3)n2)cc1")
"59.8 µM"
>>> valueobserved("COc1cc(Cn2c(-c3ccccc3)cc3c2-c2oncc2CC3)cc(OC)c1")
"> 100 µM"
>>> valueobserved("O=C(O)c1ccc(N/C(=C(/C(Cl)=C(Cl)Cl)[N+](=O)[O-])n2nnc3ccccc32)cc1")
"> 100 µM"
>>> valueobserved("Cc1cc2nc3c4ccc(Br)cc4n(CCN(C)C)c3nc2cc1C")
"6.6 µM"
>>> valueobserved("Nc1cc2c3c(cccc3c1)C(=O)N(c1ccc(OCCN3CCCC3)cc1)C2=O")
"51.6 µM"
>>> valueobserved("CCCCCCCCCCCCO[P+](=O)OCCCCCCCCCCCC")
"> 100 µM"
>>> valueobserved("Cc1cc(Br)cc(C)c1NC(=O)C(=O)Nn1c(=S)[nH]c2ccccc2c1=O")
"> 100 µM"
>>> valueobserved("COc1cc(/C=N/NC2=NCCN2)ccc1O")
"> 100 µM"
